targetDesc: T1, recombinant human TIGIT (human, UniProt Q495A1 22-141, limits assumed)
T1 construct: recombinant human TIGIT used in Carterra SPR; also called hTIGIT
T1 sequence (looked up): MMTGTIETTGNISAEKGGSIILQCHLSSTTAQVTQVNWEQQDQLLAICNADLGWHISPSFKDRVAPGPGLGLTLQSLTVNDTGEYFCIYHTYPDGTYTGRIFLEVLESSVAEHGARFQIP
assayInfo: SPR Carterra, average
recordedMetric: koff (s⁻¹)
Report only the number, with the unit s⁻¹ understood.

1) TIGIT-SC100 (Fc fusion, VHH-Fc fusion in assay) VHH: EVQLVESGGGLVQPGGSLRLSCAASGRTLSDRAMGWFRQAPGKEREFVAAITDNGGSTYYADSVKGRFTISADNSKNTAYLQMNSLKPEDTAVYYCARWYSSSGDYYYMDVWGQGTLVTVSS :: 0.00183
2) TIGIT-SC169 (Fc fusion, VHH-Fc fusion in assay) VHH: EVQLVESGGGLVQPGGSLRLSCAASGFTLNDYAMGWFRQAPGKERELVAWIARYDGSTLYADSVKGRFTISADNSKNTAYLQMNSLKPEDTAVYYCTTELRWELQQPDYWGQGTLVTVSS :: 0.206
3) TIGIT-SC129 (Fc fusion, VHH-Fc fusion in assay) VHH: EVQLVESGGGLVQPGGSLRLSCAASGPTLGSYVMGWFRQAPGKEREFVAAISGSGDDTYYADSVKGRFTISADNSKNTAYLQMNSLKPEDTAVYYCARWREFPGYYFAIDVWGQGTLVTVSS :: 0.00191

Lookup result for TIGIT-SC182 (Fc fusion, VHH-Fc fusion in assay) VHH: EVQLVESGGGLVQPGGSLRLSCAASGFTFSSSSMGWFRQAPGKEREFVAAINWSGGSTSYADSVKGRFTISADNSKNTAYLQMNSPKPEDTAVYYCAKDRSYSFDYWGQGTLVTVSS ; measured koff: 0.00722
